measured-target: human M4 receptor (Homo sapiens (Human), UniProt P08173)
Sequence (P08173 whole entry): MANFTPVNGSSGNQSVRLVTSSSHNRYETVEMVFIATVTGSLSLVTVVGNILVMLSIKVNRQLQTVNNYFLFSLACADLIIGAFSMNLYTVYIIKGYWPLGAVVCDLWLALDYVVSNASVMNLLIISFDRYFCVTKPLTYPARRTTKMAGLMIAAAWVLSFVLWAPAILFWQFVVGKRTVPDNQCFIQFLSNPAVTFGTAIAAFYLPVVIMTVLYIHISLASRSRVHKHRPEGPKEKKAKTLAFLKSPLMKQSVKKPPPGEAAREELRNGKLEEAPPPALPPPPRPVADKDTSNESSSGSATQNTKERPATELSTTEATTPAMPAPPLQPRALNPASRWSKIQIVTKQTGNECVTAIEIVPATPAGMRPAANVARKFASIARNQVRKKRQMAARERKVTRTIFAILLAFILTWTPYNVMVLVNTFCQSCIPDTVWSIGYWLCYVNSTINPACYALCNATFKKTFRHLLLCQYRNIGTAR
test-details: Radioligand (tritiated N-methylscopolamine) binding assay, M4
experimental-parameters: Ki against the M4 receptor; membranes from CHO cells expressing human M4; tritiated N-methylscopolamine 1.5 nM; read-out: Ki
Measured Ki of individual entries

Reference set, count: 3
smiles: C[C@@H]1CN(c2ccccc2F)CCN1C(=O)NCCC1CCN(Cc2ccccc2)CC1
Ki: 100 to 1000 nM
--
smiles: COc1ccc(N2CCC(C(=O)NCCC3CCN(Cc4ccccc4)CC3)CC2)cc1C#N
Ki: 100 to 1000 nM
--
smiles: C[C@@H]1CN(c2ccc(C(F)(F)F)cc2)CCN1C(=O)NCCC1CCN(Cc2ccccc2)CC1
Ki: < 10 nM

Given C[C@@H]1CN(c2cc(F)c(F)c(F)c2)CCN1C(=O)NCCC1CCN(Cc2csnn2)CC1 , report its Ki on human M4 receptor (Homo sapiens (Human), UniProt P08173).
10 to 100 nM

Given COc1cccc(CN2CCC(CCNC(=O)C3CCN(c4ccc(OC(F)(F)F)cc4)CC3)CC2)n1 , report its Ki on human M4 receptor (Homo sapiens (Human), UniProt P08173).
100 to 1000 nM

Given O=C(NCCC1CCN(Cc2ccccc2)CC1)N1CCC(c2ccc(Cl)cc2)CC1 , report its Ki on human M4 receptor (Homo sapiens (Human), UniProt P08173).
10 to 100 nM

Given COc1ccc(-c2cc(C(F)(F)F)n3nc(C(=O)NCCC4CCN(Cc5ccccc5)CC4)cc3n2)cc1 , report its Ki on human M4 receptor (Homo sapiens (Human), UniProt P08173).
100 to 1000 nM

Given O=C(NCCC1CCN(Cc2ccccc2)CC1)N1CCC(c2nc3ccccc3s2)CC1 , report its Ki on human M4 receptor (Homo sapiens (Human), UniProt P08173).
10 to 100 nM

Given N#Cc1ccc(N2CCN(C(=O)NCCC3CCN(Cc4ccccc4)CC3)CC2)cc1 , report its Ki on human M4 receptor (Homo sapiens (Human), UniProt P08173).
100 to 1000 nM

Given N#Cc1cccc(N2CCN(C(=O)NCCC3CCN(Cc4ccccc4)CC3)CC2)c1 , report its Ki on human M4 receptor (Homo sapiens (Human), UniProt P08173).
100 to 1000 nM
